# experimental.target: human recombinant CA XII (Homo sapiens)
# Construct: recombinant human carbonic anhydrase catalytic domains using the fluorescent thermal shift assay; made in house
# Sequence (O43570 30-289 limits assumed): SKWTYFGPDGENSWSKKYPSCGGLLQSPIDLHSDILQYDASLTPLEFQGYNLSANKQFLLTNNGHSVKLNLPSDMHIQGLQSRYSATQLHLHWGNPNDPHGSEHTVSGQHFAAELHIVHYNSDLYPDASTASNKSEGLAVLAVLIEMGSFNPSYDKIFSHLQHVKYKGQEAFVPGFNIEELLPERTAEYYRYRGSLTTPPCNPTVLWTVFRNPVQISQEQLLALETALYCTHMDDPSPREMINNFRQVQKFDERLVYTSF
# assay.protocol: Fluorescent thermal shift assay (FTSA), CA XII
# Assay type: binding
# condition.notes: 37° C., pH 7.0
Task for the reader: assign each of the following molecules its reported pKd.
Answers are plain numbers, as −log10 of the molar value.

1) NS(=O)(=O)c1c(F)c(F)c(S(=O)(=O)CCNC(=O)CCOCCOCCOCCOCCOCCOCCOCCOCCOCCOCCOCCOCCOCCC(=O)O)c(NC2CCCCCCC2)c1F [AZ19-3-1] ... 7.70
2) NS(=O)(=O)c1c(F)c(F)c(S(=O)(=O)CCNC(=O)CCOCCOCCOCCOCCOCCOCCOCCOCCOCCOCCOCCOCCNC(=O)CCCCC2SCC3NC(=O)NC32)c(NC2CCCCCCC2)c1F (stereo not drawn) [AZ19-1] ... 7.30

[ask] Provide value of pKd for this record tested with human recombinant CA XII (Homo sapiens): NS(=O)(=O)c1c(F)c(F)c(S(=O)(=O)CCNC(=O)CCOCCOCCOCCOCCOCCOCCOCCOCCOCCOCCOCCOCCOCCC(=O)NCCS(=O)(=O)c2c(F)c(F)c(S(N)(=O)=O)c(F)c2NC2CCCCCCC2)c(NC2CCCCCCC2)c1F [AZ19-3-2]
[reply] 7.70

====

Task for the reader: assign each of the following molecules its reported pKd.
# experimental.target: human recombinant CA II (Homo sapiens, UniProt P00918)
# Construct: recombinant human carbonic anhydrase catalytic domains using the fluorescent thermal shift assay
# assay.protocol: Fluorescent thermal shift assay (FTSA), CA II
# condition.notes: 37° C., pH 7.0
Numbers only, as −log10 of the molar value.

Would you please look over these solved cases?
1) NS(=O)(=O)c1c(F)c(F)c(S(=O)(=O)CCNC(=O)CCOCCOCCOCCOCCOCCOCCOCCOCCOCCOCCOCCOCCNC(=O)CCCCC2SCC3NC(=O)NC32)c(NC2CCCCCCC2)c1F (stereo not drawn) [AZ19-1] ... 6.35
2) NS(=O)(=O)c1c(F)c(F)c(S(=O)(=O)CCNC(=O)CCOCCOCCOCCOCCOCCOCCOCCOCCOCCOCCOCCOCCOCCC(=O)NCCS(=O)(=O)c2c(F)c(F)c(S(N)(=O)=O)c(F)c2NC2CCCCCCC2)c(NC2CCCCCCC2)c1F [AZ19-3-2] ... 7.00

Alright, here's another molecule for you.
[ask] I'd like to know its pKd. The molecule in question is NS(=O)(=O)c1c(F)c(F)c(S(=O)(=O)CCNC(=O)CCOCCOCCOCCOCCOCCOCCOCCOCCOCCOCCOCCOCCOCCC(=O)O)c(NC2CCCCCCC2)c1F [AZ19-3-1]
[reply] 6.60

====

# experimental.target: human recombinant CA VII (Homo sapiens, UniProt P43166)
# Construct: recombinant human carbonic anhydrase catalytic domains using the fluorescent thermal shift assay
# Sequence (P43166 5-262 limits assumed): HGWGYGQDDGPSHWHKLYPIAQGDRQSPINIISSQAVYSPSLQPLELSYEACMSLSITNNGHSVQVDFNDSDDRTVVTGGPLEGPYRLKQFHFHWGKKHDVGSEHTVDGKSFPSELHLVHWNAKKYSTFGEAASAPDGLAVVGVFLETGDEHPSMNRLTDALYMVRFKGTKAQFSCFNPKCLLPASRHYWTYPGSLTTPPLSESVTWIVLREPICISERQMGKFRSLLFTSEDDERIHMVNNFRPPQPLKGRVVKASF
# assay.protocol: Fluorescent thermal shift assay (FTSA), CA VII
# condition.notes: 37° C., pH 7.0
Task for the reader: assign each of the following compounds its reported Kd.
Give bare numbers, in nM.

Would you please look over these solved cases?
1. NS(=O)(=O)c1c(F)c(F)c(S(=O)(=O)CCNC(=O)CCOCCOCCOCCOCCOCCOCCOCCOCCOCCOCCOCCOCCOCCC(=O)O)c(NC2CCCCCCC2)c1F ... 50
2. NS(=O)(=O)c1c(F)c(F)c(S(=O)(=O)CCNC(=O)CCOCCOCCOCCOCCOCCOCCOCCOCCOCCOCCOCCOCCOCCC(=O)NCCS(=O)(=O)c2c(F)c(F)c(S(N)(=O)=O)c(F)c2NC2CCCCCCC2)c(NC2CCCCCCC2)c1F ... 330

[ask] I'd like to know its Kd. The compound in question is NS(=O)(=O)c1c(F)c(F)c(S(=O)(=O)CCNC(=O)CCOCCOCCOCCOCCOCCOCCOCCOCCOCCOCCOCCOCCNC(=O)CCCCC2SCC3NC(=O)NC32)c(NC2CCCCCCC2)c1F (stereo not drawn)
[reply] 150

====

# experimental.target: human recombinant CA VB (Homo sapiens, UniProt Q9Y2D0)
# Construct: recombinant human carbonic anhydrase catalytic domains using the fluorescent thermal shift assay; made in house
# Sequence (Q9Y2D0 37-296 limits assumed): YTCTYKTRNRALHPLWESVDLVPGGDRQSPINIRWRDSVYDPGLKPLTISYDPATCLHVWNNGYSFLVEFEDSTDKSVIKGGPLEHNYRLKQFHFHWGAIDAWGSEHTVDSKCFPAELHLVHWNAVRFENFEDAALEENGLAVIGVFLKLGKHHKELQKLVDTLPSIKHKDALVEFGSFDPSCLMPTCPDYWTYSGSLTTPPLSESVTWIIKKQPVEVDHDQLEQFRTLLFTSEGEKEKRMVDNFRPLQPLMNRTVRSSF
# assay.protocol: Fluorescent thermal shift assay (FTSA), CA VB
# Assay type: binding
# condition.notes: 37° C., pH 7.0
Task for the reader: assign each of the following compounds its reported Kd.
Give bare numbers, in nM.

Would you please look over these solved cases?
1. NS(=O)(=O)c1c(F)c(F)c(S(=O)(=O)CCNC(=O)CCOCCOCCOCCOCCOCCOCCOCCOCCOCCOCCOCCOCCNC(=O)CCCCC2SCC3NC(=O)NC32)c(NC2CCCCCCC2)c1F (stereo not drawn) [AZ19-1] ... 83
2. NS(=O)(=O)c1c(F)c(F)c(S(=O)(=O)CCNC(=O)CCOCCOCCOCCOCCOCCOCCOCCOCCOCCOCCOCCOCCOCCC(=O)NCCS(=O)(=O)c2c(F)c(F)c(S(N)(=O)=O)c(F)c2NC2CCCCCCC2)c(NC2CCCCCCC2)c1F [AZ19-3-2] ... 70

Alright, here's another compound for you.
[ask] I'd like to know its Kd. The compound in question is NS(=O)(=O)c1c(F)c(F)c(S(=O)(=O)CCNC(=O)CCOCCOCCOCCOCCOCCOCCOCCOCCOCCOCCOCCOCCOCCC(=O)O)c(NC2CCCCCCC2)c1F [AZ19-3-1]
[reply] 70

====

# experimental.target: human recombinant CA VA (Homo sapiens, UniProt P35218)
# Construct: recombinant human carbonic anhydrase catalytic domains using the fluorescent thermal shift assay
# Sequence (P35218 39-296 limits assumed): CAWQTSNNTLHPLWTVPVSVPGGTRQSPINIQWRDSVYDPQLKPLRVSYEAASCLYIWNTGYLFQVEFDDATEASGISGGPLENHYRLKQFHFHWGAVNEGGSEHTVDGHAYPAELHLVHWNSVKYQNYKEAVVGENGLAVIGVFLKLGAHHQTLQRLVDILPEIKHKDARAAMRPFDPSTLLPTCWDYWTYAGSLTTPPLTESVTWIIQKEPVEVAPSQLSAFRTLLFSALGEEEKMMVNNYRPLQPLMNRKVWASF
# assay.protocol: Fluorescent thermal shift assay (FTSA), CA VA
# condition.notes: 37° C., pH 7.0
Task for the reader: assign each of the following molecules its reported pKd.
Give bare numbers, as −log10 of the molar value.

1. NS(=O)(=O)c1c(F)c(F)c(S(=O)(=O)CCNC(=O)CCOCCOCCOCCOCCOCCOCCOCCOCCOCCOCCOCCOCCOCCC(=O)NCCS(=O)(=O)c2c(F)c(F)c(S(N)(=O)=O)c(F)c2NC2CCCCCCC2)c(NC2CCCCCCC2)c1F ... 5.52
2. NS(=O)(=O)c1c(F)c(F)c(S(=O)(=O)CCNC(=O)CCOCCOCCOCCOCCOCCOCCOCCOCCOCCOCCOCCOCCNC(=O)CCCCC2SCC3NC(=O)NC32)c(NC2CCCCCCC2)c1F (stereo not drawn) ... 5.15

[ask] I'd like to know its pKd. The molecule in question is NS(=O)(=O)c1c(F)c(F)c(S(=O)(=O)CCNC(=O)CCOCCOCCOCCOCCOCCOCCOCCOCCOCCOCCOCCOCCOCCC(=O)O)c(NC2CCCCCCC2)c1F
[reply] 5.00

Data provenance is patent US20240000946A1.
